I'd appreciate it if you could supply PDI values for the items below.
# PROTOCOL DESCRIPTION: LNP size and polydispersity by DLS (Malvern Panalytical)
# Assay type: physicochemical
# PROTOCOL CONDITIONS: LNP polydispersity, mRNA LNPs of Table 18
Lab note: jot the number down without any unit.

Query :: Which PDI value belongs to ARK003: mRNA: SP + WP_019264904.1 (Methanobrevibacter smithii) + TM/C; SEQ ID NO: 16678 (nucleic acid, listed as DNA) ATGTTCGTGTTCCTCGTGCTCCTGCCCCTCGTCTCCAGCCAGTGCGTGTACCTCATGACCATACCACTGAACGGCACCCCACTCCACGCCTTCCCACTGCCACCCTGGTACATCTGGCTGGGCTTCATCGCAGGACTGATCGCCATCGTCATGGTCACCATAATGCTCTGTTGCATGACCTCCTGCTGTAGCTGCCTGAAAGGCTGTTGCAGCTGCGGGAGCTGCTGCAAATTCGACGAAGACGATAGCGAACCTGTGCTCAAAGGGGTGAAGTTGCATTACACATAGTGA ?
Result :: 0.118

Query :: Now the same for ARK001: mRNA: SP + WP_004031278.1 (Methanobacterium formicicum) + TM/C; SEQ ID NO: 16676 (nucleic acid, listed as DNA) ATGTTCGTGTTCCTCGTGCTCCTGCCCCTCGTCTCCAGCCAGTGCGTGTACCTCATGACACTGAGCCTGCCAGGGTTCGCACATCCCTTCGCACTCCCCCCCTGGTACATCTGGCTGGGCTTCATCGCAGGACTGATCGCCATCGTCATGGTCACCATAATGCTCTGTTGCATGACCTCCTGCTGTAGCTGCCTGAAAGGCTGTTGCAGCTGCGGGAGCTGCTGCAAATTCGACGAAGACGATAGCGAACCTGTGCTCAAAGGGGTGAAGTTGCATTACACATAGTGA
Result :: 0.086

Query :: Now the same for ARK002: mRNA: SP + WP_012956721.1 (Methanobrevibacter ruminantium) + TM/C; SEQ ID NO: 16677 (nucleic acid, listed as DNA) ATGTTCGTGTTCCTCGTGCTCCTGCCCCTCGTCTCCAGCCAGTGCGTGTACCTCATGACACTCCCCCTGGACGGACTCGGGCACCCCTTCCCCCTGCCACCCTGGTACATCTGGCTGGGCTTCATCGCAGGACTGATCGCCATCGTCATGGTCACCATAATGCTCTGTTGCATGACCTCCTGCTGTAGCTGCCTGAAAGGCTGTTGCAGCTGCGGGAGCTGCTGCAAATTCGACGAAGACGATAGCGAACCTGTGCTCAAAGGGGTGAAGTTGCATTACACATAGTGA
Result :: 0.108

Query :: Now the same for ARK004: mRNA: SP + WP_016359091.1 (Methanobrevibacter sp. AbM4) + TM/C; SEQ ID NO: 16679 (nucleic acid, listed as DNA) ATGTTCGTGTTCCTCGTGCTCCTGCCCCTCGTCTCCAGCCAGTGCGTGTACCTGATGATAATCCCAATCAACGGGAGTGCACTCCACATCTTCCCCCTCCCGCCCTGGTACATCTGGCTGGGCTTCATCGCAGGACTGATCGCCATCGTCATGGTCACCATAATGCTCTGTTGCATGACCTCCTGCTGTAGCTGCCTGAAAGGCTGTTGCAGCTGCGGGAGCTGCTGCAAATTCGACGAAGACGATAGCGAACCTGTGCTCAAAGGGGTGAAGTTGCATTACACATAGTGA
Result :: 0.108

Values from patent US20240189408A1
